Ref: ChEMBL document CHEMBL4219171

tested on: Enterobacter cloacae; test: Antibacterial activity against Enterobacter cloacae NAIMCC-B-02025 assessed as zone of inhibition measured after 18 hrs by disc diffusion method; type: functional; also: test concentration or dose not given here
# maps each entry to its inhibition zone (IZ)
Number only, in mm; omit the unit.

Some solved cases for reference:
COc1ccc(/C=C/C(=O)c2c3[nH]c4ccccc4c3cc[n+]2Cc2ccccc2)cc1.[Br-]    8
O=C(N[C@H](CO)[C@H](O)c1ccc([N+](=O)[O-])cc1)C(Cl)Cl [CHLORAMPHENICOL]    20
C#CC[n+]1ccc2c([nH]c3ccccc32)c1C(=O)/C=C/c1ccc2c(c1)OCO2.[Br-]    6

Task: Recall the recorded inhibition zone (IZ) for `Cc1ccc(/C=C/C(=O)c2nccc3c2[nH]c2ccccc23)cc1` with Enterobacter cloacae and state it.
Result: 10
